- STUDY TARGET: E. coli ammonium channel C-terminally fused to green fluorescent protein (AmtB-GFP) (Escherichia coli, UniProt P69681, S65T)
- TEST SETTINGS: AmtB-GFP trimer in MS buffer with 2x CMC of the detergent; charge state envelopes modelled with a Gaussian
Tag: TRUE if measured Zavg (mean charge state) is not below 30, FALSE if it is.

| COMPOUND | CLASS ASSIGNMENT |
| --- | --- |
| CCCCCCCCCCO[C@@H]1O[C@H](CO)[C@@H](O[C@H]2O[C@H](CO)[C@@H](O)[C@H](O)[C@H]2O)[C@H](O)[C@H]1O [DM, n-Decyl-β-D-maltoside] | TRUE |
| CCCCCCCCO[C@@H]1O[C@H](CO)[C@@H](O)[C@H](O)[C@H]1O [OG, n-Octyl-β-D-glucopyranoside] | TRUE |
| OC[C@H]1O[C@H](O[C@H]2[C@H](O)[C@@H](O)[C@H](OCCCCCC3CCCCC3)O[C@@H]2CO)[C@H](O)[C@@H](O)[C@@H]1O [Cy5, Cymal-5] | TRUE |
| CCCCCCCCOCCOCCOCCOCCO [C8E4, tetraethylene glycol monooctyl ether] | FALSE |
| CCCCCCCCS[C@@H]1O[C@H](CO)[C@@H](O)[C@H](O)[C@H]1O [OTG, n-Octyl-β-D-thioglucopyranoside] | TRUE |

----------
A collection of compounds and their measured # Bound (number of resolvable phospholipids bound)
- STUDY TARGET: mechanosensitive channel of large conductance (MscL) (Mycobacterium tuberculosis)
- Sequence (P9WJN5 1-151): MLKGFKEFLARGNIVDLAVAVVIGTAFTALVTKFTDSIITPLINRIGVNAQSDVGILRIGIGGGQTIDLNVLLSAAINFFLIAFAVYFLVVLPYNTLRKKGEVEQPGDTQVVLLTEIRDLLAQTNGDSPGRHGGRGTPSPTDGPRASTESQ
- EXPERIMENTAL PROTOCOL: Phospholipid binding to MscL resolved by native MS / IM-MS in C8E4
- TEST SETTINGS: optimised P:L:D ratio of Table 2
VALUE KIND: # Bound (number of resolvable phospholipids bound)

| COMPOUND | STUDY TARGET | REPORTED |
| --- | --- | --- |
| CCCCCCCC/C=C\CCCCCCCC(=O)OC[C@H](COP(=O)([O-])OCC[N+](C)(C)C)OC(=O)CCCCCCC/C=C\CCCCCCCC (stereo in doubt) | mechanosensitive channel of large conductance (MscL) (Mycobacterium tuberculosis) | 2 |
| CCCCCCCC/C=C\CCCCCCCCCC(=O)OC[C@H](COP(=O)([O-])OCC[N+](C)(C)C)OC(=O)CCCCCCCCC/C=C\CCCCCCCC (stereo in doubt) | mechanosensitive channel of large conductance (MscL) (Mycobacterium tuberculosis) | 2 |
| CCCCCCCC/C=C\CCCCCCCC(=O)O[C@H](COC(=O)CCCCCCCCCCCCCCC)COP(=O)(O)OC[C@H](N)C(=O)O | mechanosensitive channel of large conductance (MscL) (Mycobacterium tuberculosis) | 2 |
| CCCCCC/C=C\CCCCCCCC(=O)OC[C@H](COP(=O)([O-])OCC[N+](C)(C)C)OC(=O)CCCCCCC/C=C\CCCCCC (stereo in doubt) | mechanosensitive channel of large conductance (MscL) (Mycobacterium tuberculosis) | 2 |
| CCCC/C=C\CCCCCCCC(=O)OC[C@H](COP(=O)([O-])OCC[N+](C)(C)C)OC(=O)CCCCCCC/C=C\CCCC (stereo in doubt) | mechanosensitive channel of large conductance (MscL) (Mycobacterium tuberculosis) | 2 |
| CCCCCCCC/C=C\CCCCCCCCCCCCCC(=O)OC[C@H](COP(=O)([O-])OCC[N+](C)(C)C)OC(=O)CCCCCCCCCCCCC/C=C\CCCCCCCC (stereo in doubt) | mechanosensitive channel of large conductance (MscL) (Mycobacterium tuberculosis) | 2 |
| CCCCCCCC/C=C\CCCCCCCCCCCC(=O)OC[C@H](COP(=O)([O-])OCC[N+](C)(C)C)OC(=O)CCCCCCCCCCC/C=C\CCCCCCCC (stereo in doubt) | mechanosensitive channel of large conductance (MscL) (Mycobacterium tuberculosis) | 2 |
| CCCCCCCC/C=C\CCCCCCCC(=O)O[C@H](COC(=O)CCCCCCCCCCCCCCC)COP(=O)(O)O | mechanosensitive channel of large conductance (MscL) (Mycobacterium tuberculosis) | 1 |
| CCCCCCCC/C=C\CCCCCCCC(=O)OC[C@H](COP(=O)(O)O[C@H]1C(O)C(O)C(O)[C@@H](OP(=O)(O)O)C1O)OC(=O)CCCCCCC/C=C\CCCCCCCC (stereo partly drawn) | mechanosensitive channel of large conductance (MscL) (Mycobacterium tuberculosis) | 4 |

----------
A collection of compounds and their measured Zavg (mean charge state)
- STUDY TARGET: E. coli ammonium channel C-terminally fused to green fluorescent protein (AmtB-GFP) (Escherichia coli, UniProt P69681, S65T)
- TEST SETTINGS: AmtB-GFP trimer in MS buffer with 2x CMC of the detergent; charge state envelopes modelled with a Gaussian
VALUE KIND: Zavg (mean charge state)

| COMPOUND | REPORTED |
| --- | --- |
| CCCCCCCCCO[C@@H]1O[C@H](CO)[C@@H](O)[C@H](O)[C@H]1O [NG, n-Nonyl-β-D-glucopyranoside] | 30.4 |
| OC[C@H]1O[C@H](O[C@H]2[C@H](O)[C@@H](O)[C@H](OCCCCCCC3CCCCC3)O[C@@H]2CO)[C@H](O)[C@@H](O)[C@@H]1O | 30.5 |
| CCCCCCCCCCCCO[C@@H]1O[C@H](CO)[C@@H](O[C@H]2O[C@H](CO)[C@@H](O)[C@H](O)[C@H]2O)[C@H](O)[C@H]1O [DDM, n-Dodecyl-β-D-maltoside] | 30.4 |
